# experimentalTarget: JNK1α1 (Homo sapiens)
# Construct: catalytic domain containing amino acids 1-364 and N-terminal hexahistidine tag; hexahistidine (His6) (N); made in house; host or cells: E. coli BL21 (DE3)
# Sequence (P45983 1-364): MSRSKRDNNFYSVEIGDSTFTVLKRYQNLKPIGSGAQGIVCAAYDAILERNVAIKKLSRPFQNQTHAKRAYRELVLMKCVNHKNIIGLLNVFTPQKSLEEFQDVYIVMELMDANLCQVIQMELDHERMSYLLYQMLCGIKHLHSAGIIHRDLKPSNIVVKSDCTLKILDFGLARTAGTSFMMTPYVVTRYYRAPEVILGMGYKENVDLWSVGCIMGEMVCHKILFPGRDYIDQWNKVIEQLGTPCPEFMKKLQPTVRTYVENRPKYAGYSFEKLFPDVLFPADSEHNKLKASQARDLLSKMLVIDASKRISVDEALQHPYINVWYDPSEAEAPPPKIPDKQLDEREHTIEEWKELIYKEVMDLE
# measurementProtocol: Coupled spectrophotometric (PK/LDH) JNK1α1 assay: % inhibition and Ki determination
# Assay type: biochemical
# experimentalContext: JNK-1
Would you kindly list log10(Ki) for each of these compounds?
Values below are the log10 of the recorded Ki, with nM as the unit.

Examples with answers:
compound | quantitativeReadout
Oc1ccc2cnc(N[C@H]3CC[C@H](O)CC3)nc2c1 [Example 146] | 2.25
O=C(N[C@H](CO)CC1CCCCC1)c1ccc2cnc(NC3CCCC3)nc2c1 [Example 419] | 3.48
COc1ccccc1-c1cccc2cnc(N[C@H]3CC[C@H](O)CC3)nc12 [Example 204] | 2.48

Answer for every listed entry: what is its log10(Ki)? The entries follow.
1. CN([C@H]1CC[C@H](Nc2ncc3cccc(C(=O)N[C@@H]4CCC[C@H]4O)c3n2)CC1)S(C)(=O)=O (relative stereo) [Example 142]
2. O=C(NCC1CCOC1)c1cccc2cnc(N[C@H]3CC[C@H](O)CC3)nc12 (stereo partly drawn) [Example 107]
3. CNC(=O)c1ccc2cnc(N[C@H]3CC[C@H](O)CC3)nc2c1 [Example 58]
4. Oc1cccc2cnc(N[C@H]3CC[C@H](O)CC3)nc12 [Example 152]

1. 2.35
2. 2.40
3. 2.42
4. 2.62

---

The compounds below have reported Ki for JNK1α1 (Homo sapiens).
One number for each entry, in nM.

Examples with answers:
compound | quantitativeReadout
CC[C@@H](CO)NC(=O)c1ccc2cnc(NC(C)C)nc2c1 | 1100
O=C(NC1CCCC1)c1cccc2cnc(N[C@H]3CC[C@H](O)CC3)nc12 | 230
CC[C@H](C)[C@@H](CO)NC(=O)c1ccc2cnc(NC3CCCCC3)nc2c1 | 187
CC(C)[C@@H](CO)NC(=O)c1ccc2cnc(NC3CCCCC3)nc2c1 | 318
O[C@H]1CC[C@H](Nc2ncc3cccc(OCC4CCCCO4)c3n2)CC1 (stereo partly drawn) [Example 166] | 296
O=C(NC1CCOC1)c1ccc2cnc(N[C@H]3CC[C@H](O)CC3)nc2c1 (stereo partly drawn) | 963

Answer for every listed entry: what is its Ki? The entries follow.
1. O=C(NCC1CCOC1)c1cccc2cnc(N[C@H]3CC[C@H](O)CC3)nc12 (stereo partly drawn) [Example 117]
2. O=C(Nc1ccccn1)c1cccc2cnc(N[C@H]3CC[C@H](O)CC3)nc12

1. 250
2. 86

---

# experimentalTarget: JNK1α1 (Homo sapiens)
valueKind: Ki

Answer for every listed entry: what is its Ki? The entries follow.
1. CC(C)(CN1CCOCC1)NC(=O)c1ccc2cnc(N[C@H]3CC[C@H](O)CC3)nc2c1 [Example 89]
2. COc1ccc2cnc(N[C@H]3CC[C@H](O)CC3)nc2c1 [Example 145]
3. O[C@H]1CC[C@H](Nc2ncc3cccc(OC4CCOCC4)c3n2)CC1 [Example 169]

1. 269 nM
2. 123 nM
3. 231 nM

Answer for every listed entry: what is its Ki? The entries follow.
1. CC(=O)N[C@H]1CC[C@H](Nc2ncc3cccc(C(=O)N[C@@H]4COC[C@H]4O)c3n2)CC1 (relative stereo) [Example 140]
2. O=C(NC1CCCOC1)c1ccc2cnc(N[C@H]3CC[C@H](O)CC3)nc2c1 (some centres unmarked) [Example 353]
3. CC(=O)N1CCC(NC(=O)c2ccc3cnc(N[C@H]4CC[C@H](O)CC4)nc3c2)CC1 [Example 365]
4. O=C(COc1cccc(-c2cnccn2)c1)Nc1cc2cc(-c3cn[nH]c3)ccc2cn1 [Example 32]
5. COc1ccccc1CC(=O)Nc1cc2cc(-c3cn[nH]c3)ccc2cn1 [Example 53]
6. O=C(NC1CC1)c1cccc2cnc(N[C@H]3CC[C@H](O)CC3)nc12 [Example 447]
7. Cc1cnc(C(=O)NCC(=O)Nc2cc3cc(-c4cn[nH]c4)ccc3cn2)cn1 [Example 43]
8. Cc1cc(OCCN(C)C)ccc1-c1cccc2cnc(N[C@H]3CC[C@H](O)CC3)nc12 [Example 203]

1. 52 nM
2. 1170 nM
3. 2060 nM
4. 8 nM
5. 21 nM
6. 119 nM
7. 8 nM
8. 815 nM

Answer for every listed entry: what is its Ki? The entries follow.
1. Cc1ccc2c(c1)CCC2C(=O)Nc1cc2cc(-c3cn[nH]c3)ccc2cn1 (centres unmarked) [Example 21]
2. Cn1cncc1CNC(=O)c1cccc2cnc(N[C@H]3CC[C@H](O)CC3)nc12 [Example 465]
3. CCC[C@@H](CO)NC(=O)c1ccc2cnc(NC3CCCCC3)nc2c1 [Example 376]
4. O=C(c1cccc2cnc(N[C@H]3CC[C@H](O)CC3)nc12)N1CCOCC1 [Example 102]
5. CN(C)C(=O)c1ccc2cnc(N[C@H]3CC[C@H](O)CC3)nc2c1 [Example 59]

1: > 50 nM; 2: 782 nM; 3: 139 nM; 4: 992 nM; 5: 4340 nM

Recorded Ki (compound CC(C)(O)c1ccc(CNC(=O)c2ccc3cnc(N[C@H]4CC[C@H](O)CC4)nc3c2)cc1 [Example 366] ): 2170 nM
